# System: anxiety-like behavior in mice
# Assay Notes: Open field assay after oral compound administration
# Assay type: in vivo
# Reported Conditions: varenicline 1.5 and 4.5 mpk, FIG. 5
Observation Type: anxiety-like behavior: time spent in center of open field

In [3]: df
Out[3]:
                                   molecule                   assay_system           val
0  NCC(=O)N1CC2CC(C1)c1cc3nccnc3cc12 [Varenicline Glycinamide]  anxiety-like behavior in mice  not observed
1  N[C@@H](Cc1ccc(OC(=O)N2CC3CC(C2)c2cc4nccnc4cc23)cc1)C(=O)O  anxiety-like behavior in mice  not observed
2  O=C(N[C@@H](CO)C(=O)O)c1ccc[n+](COC(=O)N2CC3CC(C2)c2cc4nccnc4cc23)c1 [Servarenicline Chloride]  anxiety-like behavior in mice  not observed

// provenance: patent US20250197398A1
